target: UniProtKB P35348; experiment: Alpha-1 adrenergic receptor agonist activity in rabbit ear artery; conditions: target entry is the homologue from another species
Sequence (P35348 whole entry): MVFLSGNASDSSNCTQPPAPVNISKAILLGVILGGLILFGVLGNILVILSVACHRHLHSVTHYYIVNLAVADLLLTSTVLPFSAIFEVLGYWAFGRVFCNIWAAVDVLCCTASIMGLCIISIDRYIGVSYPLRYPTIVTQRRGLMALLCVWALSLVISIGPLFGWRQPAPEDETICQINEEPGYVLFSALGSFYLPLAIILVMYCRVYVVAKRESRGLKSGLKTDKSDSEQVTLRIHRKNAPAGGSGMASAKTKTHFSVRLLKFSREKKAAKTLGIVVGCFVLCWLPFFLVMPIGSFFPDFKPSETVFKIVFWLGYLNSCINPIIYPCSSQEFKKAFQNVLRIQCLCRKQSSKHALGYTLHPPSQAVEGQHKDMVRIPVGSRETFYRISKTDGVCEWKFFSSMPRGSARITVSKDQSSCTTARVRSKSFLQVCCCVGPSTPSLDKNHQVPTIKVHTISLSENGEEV
Below, each of the molecules is paired with its reported EC50 value.
measurement.kind: EC50 (µM)

- COc1ccc(OC)c2c1C1CCC2[C@@H](N)C1 (some centres not stated): 30
- COc1ccc(OC)c2c1CCCC(N)C2 (configuration not stated): 5.3
- COc1ccc(OC)c2c1CC[C@@H]1NCCCC21 (some centres not stated): 0.2
- COc1ccc(OC)c2c1C1CCC2[C@H](N)C1 (some centres not stated): 30
- COc1ccc(OC)c2c1CC[C@H]1NCCCC21 (some centres not stated): 0.17
- COc1ccc(OC)c(CCN)c1: 11
- COc1ccc(OC)c(C(O)C(C)N)c1 (configuration not stated): 0.72
- COc1ccc(OC)c2c1CC(N)C2: 30
- COc1ccc(OC)c2c1CCC(N)C2 (configuration not stated): 0.12
- COc1ccc(OC)c2c1CC1C2[C@@H]1N (some centres not stated): 0.34

---

species on record: Oryctolagus cuniculus; assay: Phentolamine dissociation constant was evaluated in rabbit ear artery; format: functional
measurement.kind: Kb (nM)

- COc1ccc(OC)c2c1CC[C@H]1NCCCC21 (some centres not stated): 11
- COc1ccc(OC)c2c1CCCC(N)C2 (configuration not stated): 11
- COc1ccc(OC)c2c1CC[C@@H]1NCCCC21 (some centres not stated): 14.7
- COc1ccc(OC)c2c1CC1C2[C@@H]1N (some centres not stated): 8.4
- COc1ccc(OC)c2c1CCC(N)C2 (configuration not stated): 6
- COc1ccc(OC)c(C(O)C(C)N)c1 (configuration not stated): 9.8
- COc1ccc(OC)c(CCN)c1: 54
